Biological target: human PHD2 (Homo sapiens (Human), UniProt Q9GZT9)
Sequence (Q9GZT9 whole entry): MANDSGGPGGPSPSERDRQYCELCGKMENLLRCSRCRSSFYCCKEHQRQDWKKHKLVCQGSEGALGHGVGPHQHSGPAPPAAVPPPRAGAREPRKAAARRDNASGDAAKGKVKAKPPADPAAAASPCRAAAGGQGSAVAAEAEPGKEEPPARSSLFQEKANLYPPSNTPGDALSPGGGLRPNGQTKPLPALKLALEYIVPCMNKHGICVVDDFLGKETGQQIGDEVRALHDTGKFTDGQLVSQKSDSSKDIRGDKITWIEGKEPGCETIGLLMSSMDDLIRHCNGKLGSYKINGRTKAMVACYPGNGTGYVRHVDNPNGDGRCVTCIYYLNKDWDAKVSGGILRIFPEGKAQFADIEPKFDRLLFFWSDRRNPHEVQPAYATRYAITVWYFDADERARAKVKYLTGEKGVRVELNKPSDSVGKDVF
Assay: Test 2: human PHD2 inhibitory activity, fluorescence polarization assay of HIF-1α peptide proline hydroxylation
Assay type: biochemical
Conditions: test compound's concentration 1 μM; Test 2, fluorescence polarization assay; read-out: Percent inhibition (% at 1 μM)
Observation type: inhibition at 1 µM (%)

[[record]]
compound = "O=C(O)CNC(=O)C1=C(O)CCN(Cc2ccc(-c3ccccn3)cc2)C1=O"
observation_type = "inhibition at 1 µM"
recorded_measurement = 90

[[record]]
compound = "CC1(COc2ccc(CN3CCC(O)=C(C(=O)NCC(=O)O)C3=O)cc2)CC1"
observation_type = "inhibition at 1 µM"
recorded_measurement = 84

[[record]]
compound = "O=C(O)CNC(=O)C1=C(O)CCN(Cc2ccc(OCC(F)(F)F)cc2)C1=O"
observation_type = "inhibition at 1 µM"
recorded_measurement = 86

[[record]]
compound = "O=C(O)CNC(=O)C1=C(O)CCN(Cc2ccc(COc3ccc(C(F)(F)F)cn3)cc2)C1=O"
observation_type = "inhibition at 1 µM"
recorded_measurement = 97

[[record]]
compound = "O=C(O)CNC(=O)C1=C(O)C[C@H](Cc2ccccc2)N(Cc2ccc(OCC3CC3)cc2)C1=O"
observation_type = "inhibition at 1 µM"
recorded_measurement = 88

[[record]]
compound = "O=C(O)CNC(=O)C1=C(O)CC2(CCOCC2)N(Cc2ccc(-c3ccccc3)cc2)C1=O"
observation_type = "inhibition at 1 µM"
recorded_measurement = 92

[[record]]
compound = "O=C(O)CNC(=O)C1=C(O)CCN(C2CCC(Cc3ccccc3)CC2)C1=O (stereo not shown)"
observation_type = "inhibition at 1 µM"
recorded_measurement = 82

[[record]]
compound = "O=C(O)CNC(=O)C1=C(O)CCN(Cc2ccc(OCc3ccccc3Cl)cc2)C1=O"
observation_type = "inhibition at 1 µM"
recorded_measurement = 98

[[record]]
compound = "O=C(O)CNC(=O)C1=C(O)CC2(COC2)N(Cc2ccc(-c3ccc(C(F)(F)F)cc3)cc2)C1=O"
observation_type = "inhibition at 1 µM"
recorded_measurement = 97

[[record]]
compound = "CC(C)(C)COCc1ccc(CN2CCC(O)=C(C(=O)NCC(=O)O)C2=O)cc1"
observation_type = "inhibition at 1 µM"
recorded_measurement = 91

[[record]]
compound = "O=C(O)CNC(=O)C1=C(O)CCN(Cc2ccc3cccnc3c2)C1=O"
observation_type = "inhibition at 1 µM"
recorded_measurement = 82

[[record]]
compound = "O=C(O)CNC(=O)C1=C(O)CCN(Cc2ccc(Oc3ccc(C(F)(F)F)nc3)cc2)C1=O"
observation_type = "inhibition at 1 µM"
recorded_measurement = 97

[[record]]
compound = "O=C(O)CNC(=O)C1=C(O)C2(CCCCC2)CN(Cc2ccc(-c3ccccc3)cc2)C1=O"
observation_type = "inhibition at 1 µM"
recorded_measurement = 87

[[record]]
compound = "Cc1ccc(Oc2cnc(CN3CCC(O)=C(C(=O)NCC(=O)O)C3=O)cn2)cc1"
observation_type = "inhibition at 1 µM"
recorded_measurement = 93

[[record]]
compound = "Cc1c(CN2CCC(O)=C(C(=O)NCC(=O)O)C2=O)cnn1-c1ccccc1"
observation_type = "inhibition at 1 µM"
recorded_measurement = 85

[[record]]
compound = "O=C(O)CNC(=O)C1=C(O)CCN(C[C@H]2C[C@@H](Oc3ccc(Cl)cc3)C2)C1=O"
observation_type = "inhibition at 1 µM"
recorded_measurement = 98

[[record]]
compound = "Cc1ccc(O[C@H]2CC[C@H](CN3CCC(O)=C(C(=O)NCC(=O)O)C3=O)CC2)cc1"
observation_type = "inhibition at 1 µM"
recorded_measurement = 95

[[record]]
compound = "O=C(O)CNC(=O)C1=C(O)C2(CCC2)CN(Cc2ccc(C3CC3)cc2)C1=O"
observation_type = "inhibition at 1 µM"
recorded_measurement = 84

[[record]]
compound = "O=C(O)CNC(=O)C1=C(O)C2(CCC2)CN(Cc2cnc(-c3ccccc3)s2)C1=O"
observation_type = "inhibition at 1 µM"
recorded_measurement = 91

[[record]]
compound = "O=C(O)CNC(=O)C1=C(O)C(F)(F)CN(Cc2ccc(C(F)(F)F)cc2)C1=O"
observation_type = "inhibition at 1 µM"
recorded_measurement = 96

[[record]]
compound = "O=C(O)CNC(=O)C1=C(O)CCN(C[C@H]2C[C@H](OCc3ccc(Cl)cc3)C2)C1=O"
observation_type = "inhibition at 1 µM"
recorded_measurement = 94

[[record]]
compound = "COc1cccc(-c2ccc(CN3CCC(O)=C(C(=O)NCC(=O)O)C3=O)cn2)c1"
observation_type = "inhibition at 1 µM"
recorded_measurement = 97


---

Target: human PHD2 (Homo sapiens (Human), UniProt Q9GZT9)
Experiment: Test 2: human PHD2 inhibitory activity, fluorescence polarization assay of HIF-1α peptide proline hydroxylation
Assay type: biochemical
Conditions: test compound's concentration 1 μM; Test 2, fluorescence polarization assay; read-out: Percent inhibition (% at 1 μM)
Observation type: inhibition at 1 µM (%)

[[record]]
molecule = "CC1CC(O)=C(C(=O)NCC(=O)O)C(=O)N1Cc1ccc(OC(F)(F)F)cc1 (stereo not drawn)"
readout_unit = "%"
recorded_measurement = 74

[[record]]
molecule = "Cc1cc(CN2CCC(O)=C(C(=O)NCC(=O)O)C2=O)cnc1OCC(F)(F)F"
readout_unit = "%"
recorded_measurement = 82

[[record]]
molecule = "O=C(O)CNC(=O)C1=C(O)CCN(Cc2ccc(F)cc2)C1=O"
readout_unit = "%"
recorded_measurement = 78

[[record]]
molecule = "CC1(C)CC(O)=C(C(=O)NCC(=O)O)C(=O)N1Cc1ccc(Cl)c(Cl)c1"
readout_unit = "%"
recorded_measurement = 75

[[record]]
molecule = "O=C(O)CNC(=O)C1=C(O)CCN(Cc2ccc(-c3ccccc3)cc2F)C1=O"
readout_unit = "%"
recorded_measurement = 95

[[record]]
molecule = "CC(C)(C)c1ccc(-c2ccc(CN3CCC(O)=C(C(=O)NCC(=O)O)C3=O)cc2)cc1"
readout_unit = "%"
recorded_measurement = 85

[[record]]
molecule = "O=C(O)CNC(=O)C1=C(O)CCN(C[C@H]2CC[C@H](Oc3ccc(C4CC4)cc3)CC2)C1=O"
readout_unit = "%"
recorded_measurement = 98

[[record]]
molecule = "O=C(O)CNC(=O)C1=C(O)CCN(Cc2ccc(OCCC(F)(F)F)cc2)C1=O"
readout_unit = "%"
recorded_measurement = 83

[[record]]
molecule = "CC1(C)CC(O)=C(C(=O)NCC(=O)O)C(=O)N1Cc1ccc(OC2CCCC2)cc1"
readout_unit = "%"
recorded_measurement = 82


---

Target: human PHD2 (Homo sapiens (Human))
Assay: Test 1: human PHD2 inhibitory activity, [14C]-2-oxoglutarate to [14C]-succinic acid radiometric assay with HIF-1α peptide
Format: biochemical
Conditions: test compound's concentration 1 μM; Test 1, [14C]-2-oxoglutarate radiometric assay; read-out: Percent inhibition (% at 1 μM)
Observation type: inhibition at 1 µM (%)

[[record]]
compound = "Cc1ccc(CN2C(=O)C(C(=O)NCC(=O)O)=C(O)CC2C)cc1 (stereo not shown)"
observation_type = "inhibition at 1 µM"
recorded_measurement = 64

[[record]]
compound = "O=C(O)CNC(=O)C1=C(O)CC2(CCC2)N(Cc2ccc(OC(F)(F)F)cc2)C1=O"
observation_type = "inhibition at 1 µM"
recorded_measurement = 77

[[record]]
compound = "O=C(O)CNC(=O)C1=C(O)CCN(Cc2ccccc2Oc2ccc(F)cc2)C1=O"
observation_type = "inhibition at 1 µM"
recorded_measurement = 63

[[record]]
compound = "O=C(O)CNC(=O)C1=C(O)CCN(Cc2ccc(Cl)c(C(F)(F)F)c2)C1=O"
observation_type = "inhibition at 1 µM"
recorded_measurement = 80


---

Target: human PHD2 (Homo sapiens (Human), UniProt Q9GZT9)
Assay: Test 2: human PHD2 inhibitory activity, fluorescence polarization assay of HIF-1α peptide proline hydroxylation
Assay type: biochemical
Settings: test compound's concentration 1 μM; Test 2, fluorescence polarization assay; read-out: Percent inhibition (% at 1 μM)
Observation type: inhibition at 1 µM (%)

[[record]]
compound = "CC1(C)C(O)=C(C(=O)NCC(=O)O)C(=O)N1Cc1ccc(OCC2CC2)cc1"
readout_unit = "%"
recorded_measurement = 85

[[record]]
compound = "Cc1cc(CN2CCC(O)=C(C(=O)NCC(=O)O)C2=O)ccc1OCCC(F)(F)F"
readout_unit = "%"
recorded_measurement = 83

[[record]]
compound = "Cc1ccccc1Oc1ccc(CN2CCC(O)=C(C(=O)NCC(=O)O)C2=O)cn1"
readout_unit = "%"
recorded_measurement = 94

[[record]]
compound = "O=C(O)CNC(=O)C1=C(O)CCN(Cc2ccc(O)cc2)C1=O"
readout_unit = "%"
recorded_measurement = 72

[[record]]
compound = "CC1(C)CC(O)=C(C(=O)NCC(=O)O)C(=O)N1Cc1ccc(OCC2CC2)cc1"
readout_unit = "%"
recorded_measurement = 79

[[record]]
compound = "O=C(O)CNC(=O)C1=C(O)CCN(C[C@H]2C[C@H](Oc3cccc(Cl)c3)C2)C1=O"
readout_unit = "%"
recorded_measurement = 92

[[record]]
compound = "O=C(O)CNC(=O)C1=C(O)CCN(Cc2ccc(-c3ccc(F)cc3)cc2)C1=O"
readout_unit = "%"
recorded_measurement = 97

[[record]]
compound = "O=C(O)CNC(=O)C1=C(O)CCN(Cc2ccc(OCC(F)(F)F)c(Cl)c2)C1=O"
readout_unit = "%"
recorded_measurement = 89

[[record]]
compound = "CC1(C)CC(O)=C(C(=O)NCC(=O)O)C(=O)N1C[C@@H]1C[C@@H]1c1ccccc1"
readout_unit = "%"
recorded_measurement = 50

[[record]]
compound = "O=C(O)CNC(=O)C1=C(O)CC(c2ccccc2)N(Cc2ccccc2)C1=O (stereo not shown)"
readout_unit = "%"
recorded_measurement = 55

[[record]]
compound = "Cc1ccc(CO[C@H]2CC[C@H](CN3CCC(O)=C(C(=O)NCC(=O)O)C3=O)CC2)cc1"
readout_unit = "%"
recorded_measurement = 97

[[record]]
compound = "COc1cccc(CN2CCC(O)=C(C(=O)NCC(=O)O)C2=O)c1"
readout_unit = "%"
recorded_measurement = 71

[[record]]
compound = "CN(C)C(=O)c1ccc(-c2ccc(CN3CCC(O)=C(C(=O)NCC(=O)O)C3=O)cc2)cc1"
readout_unit = "%"
recorded_measurement = 85

[[record]]
compound = "O=C(O)CNC(=O)C1=C(O)CCN(Cc2ccc(-c3cncnc3)cc2)C1=O"
readout_unit = "%"
recorded_measurement = 87

[[record]]
compound = "O=C(O)CNC(=O)C1=C(O)CCN(Cc2ccc(C(=O)O)cc2)C1=O"
readout_unit = "%"
recorded_measurement = 73

[[record]]
compound = "COc1ccc(CN2C(=O)C(C(=O)NCC(=O)O)=C(O)CC2(C)C)cc1Cl"
readout_unit = "%"
recorded_measurement = 57

[[record]]
compound = "CC1(COc2ccc(CN3CCC(O)=C(C(=O)NCC(=O)O)C3=O)cn2)CC1"
readout_unit = "%"
recorded_measurement = 89

[[record]]
compound = "O=C(O)CNC(=O)C1=C(O)CCN(Cc2ccc(OCc3ccccc3)cc2)C1=O"
readout_unit = "%"
recorded_measurement = 97

[[record]]
compound = "CC1(C)CC(O)=C(C(=O)NCC(=O)O)C(=O)N1Cc1ccc(OCC2CCC2)cc1"
readout_unit = "%"
recorded_measurement = 87

[[record]]
compound = "O=C(O)CNC(=O)C1=C(O)CCN(Cc2ccc(-c3ccc(Cl)cn3)cc2)C1=O"
readout_unit = "%"
recorded_measurement = 100

[[record]]
compound = "O=C(O)CNC(=O)C1=C(O)CCN(C[C@H]2CC[C@H](OC3CCC3)CC2)C1=O"
readout_unit = "%"
recorded_measurement = 82

[[record]]
compound = "Cc1ccc(CN2C(=O)C(C(=O)NCC(=O)O)=C(O)CC2C)cc1 (stereo not shown)"
readout_unit = "%"
recorded_measurement = 71

